system: SF-268 CNS; assay: NCI tumour cell line growth inhibition, 48 h
measurementKind: TGI

Completed entries (count: 3):
molecule	TGI
O=C(O/N=C1\CCCC\C1=C/c1ccccc1)c1ccc([N+](=O)[O-])cc1	> 100 µM
COc1ccccc1NC(=O)C1=C(C)NC(C)=C(C(=O)Nc2ccccc2OC)C1c1ccccc1[N+](=O)[O-]	50.7 µM
CC(C)(C)OC(=O)NC1CCCC1C(=O)C1=CCCC1 (centres undefined)	> 100 µM

// input: 2 molecules below; output: TGI for each
1. O=[N+]([O-])c1ccc(C2=Nc3ccccc3S(=O)C(c3ccccc3)C2)cc1 (centres undefined)
2. CCOC1OC(CO)C(O)CC1n1ccc(=O)[nH]c1=O (centres undefined)

Response line:
1: > 100 µM; 2: > 100 µM

---

test system: UACC-257 melanoma; assay: NCI tumour cell line growth inhibition, 48 h
Please provide measured TGI for the entries that follow.

// input: 5 compounds below; output: TGI for each
1. COc1nc(N=P(c2ccccc2)(c2ccccc2)c2ccccc2)cc(=O)n1C
2. COC1(CC[C@@H](C)COC2OC(CO)C(O)C(O)C2O)O[C@H]2C[C@H]3[C@@H]4CC=C5C[C@@H](OC6OC(CO)C(OC7OC(C)C(O)C(O)C7O)C(O)C6OC6OC(C)C(O)C(O)C6O)CC[C@]5(C)[C@H]4CC[C@]3(C)[C@H]2[C@@H]1C (some centres not stated)
3. O[C@]12C=C(c3nccc4c3[nH]c3ccccc34)[C@@H]3CCN(CCCC/C=C\CC1)C[C@@]31CC3/C=C\CCCCN3[C@H]12 (some centres not stated)
4. Nc1nc(NNc2cccc(F)c2)cc(=O)[nH]1
5. CC(=O)Nc1[nH]n(C)c(=O)c1-c1nnc(C)s1

Response line:
1: > 100 µM; 2: 8.38 µM; 3: 3.39 µM; 4: > 100 µM; 5: > 100 µM

---

test system: MOLT-4 leukemia; experiment: NCI tumour cell line growth inhibition, 48 h
measurementKind: TGI

Completed entries (count: 5):
molecule	testResult
CC(=O)Nc1[nH]n(C)c(=O)c1-c1nnc(C)s1	> 100 µM
Cc1c(C)c2c(c(N)c1C#N)C(=O)N(O)C2=O	> 100 µM
CCOC(=O)Cc1cc(OC)c(OC)cc1/C(Cl)=C(\CO)c1ccc(OC)c(OC)c1	> 100 µM
O=C(O/N=C1\CCCC\C1=C/c1ccccc1)c1ccc([N+](=O)[O-])cc1	> 100 µM
CCOCC1(COCC)CCC(c2[nH]ncc2CN(C)CCNC)CC1	> 100 µM

// input: 6 molecules below; output: TGI for each
1. COc1ccccc1NC(=O)C1=C(C)NC(C)=C(C(=O)Nc2ccccc2OC)C1c1ccccc1[N+](=O)[O-]
2. O=C(Nc1ccc(Oc2ccc(F)cc2)cc1)[C@@H]1C[C@@H](Cc2ccc(F)cc2)CN1C(=O)Cn1ccnn1
3. COc1ccc(Nc2nc3ccccc3n3cccc23)cc1OC
4. COc1ccc2nc3cc(Cl)ccc3c(NCCCNCCO)c2c1
5. CSc1ccc(C2=C(c3ccccc3)C(=O)OC2)cc1
6. CCOC(=O)N/N=C(/N)c1cccc(Br)c1

Response line:
1: 49.5 µM; 2: 31.6 µM; 3: 43.3 µM; 4: 3.4 µM; 5: > 100 µM; 6: > 100 µM
